- test: NCI Yeast Anticancer Drug Screen. Data for the mlh1 rad18 strain (AID 175)
- condition-details: S. cerevisiae mlh1 rad18 strain growth inhibition; at 50.0 µM; active compounds read high
This is part of a sample that, as a whole, favours compounds with a hit. Of some 79,000 tested, about 15% had one in any assay.
measured-attribute: growth inhibition (%)
Quick reminder: number only, in %, skip the unit.

Sample records with growth inhibition:
O=NNc1ncccn1; -23
COC12c3c(C)cc(O)c4c(=O)occ(c34)C(=O)C1C13COC(=O)c4c(O)cc(C)c(c41)C(=O)C2C3OC(C)=O (configuration not stated); 91.9
Cc1cc(Cl)nc(N)n1; -21.4
CC(C)NC(C)C(C)c1ccccc1 (configuration not stated); 11
O=C1CC(c2ccccc2)n2cccc21 (configuration not stated); -27.8
CC(C)C(Br)C(N)=O (configuration not stated); -14.8
CC(O)CN(CCN(CC(C)O)CC(C)O)CC(C)O.O=[N+]([O-])O.[Cu+2] (configuration not stated); 5.15
O=NNc1ncc(Cl)cc1Cl; 8.65
CC1(C)C(=O)C=CC2(C)C3CCC4(C)C(O)CCC4(C)C3CCC12 (configuration not stated); 20.1
Cc1cc(Cl)ccc1NC(=O)/C(CC(=O)CC(c1ccccc1)c1c(O)c2ccccc2oc1=O)=N\O (configuration not stated); -5.8

Query: Given the compound CN1CC(NC(=O)N(CCCl)N=O)CC2c3cccc4c3c(cn4N=O)CC21 (configuration not stated) , write its reported growth inhibition.
Reply: 52.1

Query: Report measured growth inhibition; entry is "c1ccc(C2(N3CCC4(CC3)OCCO4)CCCCC2)cc1"
Reply: 6.35

---

- test: NCI Yeast Anticancer Drug Screen. Data for the mec2-1 strain (AID 157)
- condition-details: S. cerevisiae mec2-1 strain, at 50.0 µM (retest, dose inferred, filed as 5.0)
Compounds without any hit were thinned out: in the full panel of roughly 79,000, 15% have a hit. Calls of active or inactive are those of the source. No stated cut-off is given here; in the data, active means growth inhibition above about 70%; inactive means the rest.
# valid calls are T for active, F for inactive; nothing else

Consider the worked cases shown below.
OC(CN(CCCl)CCCl)C(O)C(O)C(O)CN(CCCl)CCCl (configuration not stated); F
CCC[CH2][Sn]1([CH2]CCC)[O]CC(C)[O]1 (configuration not stated); T
CCN1CCC(O)(c2ccc(Cl)cc2)C(C(=O)c2ccc(Cl)cc2)C1 (configuration not stated); T
O=C1OCC2CC3C4C=CC(C4)C3C12 (configuration not stated); T
C[N+](C)(C)CC1CCCC1=O (configuration not stated); F

Query: Hi team, can someone confirm the assay call for "C#CC[As+](c1ccccc1)(c1ccccc1)c1ccccc1" ?
Reply: T

Query: So what was the verdict on CC[S+](C)c1ccc(-c2c3nc(c(-c4ccc([S+](C)CC)cc4)c4ccc([nH]4)c(-c4ccc([S+](C)CC)cc4)c4nc(c(-c5ccc([S+](C)CC)cc5)c5ccc2[nH]5)C=C4)C=C3)cc1 (configuration not stated) in this test?
Reply: T

Query: Tell me the assay call for "COc1ccc(Br)c(/C=C/[N+](=O)[O-])c1" please.
Reply: T

Query: What call does the record list for CCN(CC)C(=S)[S-].CCN(CC)C(=S)[S-].O=C(O)CC([S-])C(=O)O.[Fe+3] (configuration not stated) ?
Reply: T

Query: recorded result category for "[Cl-].[Cl-].[Cl-].[O-]c1cccc2cccnc12.[O-]c1cccc2cccnc12.[O]=[Mo]" in this test
Reply: T

Query: Outcome? "Nc1nc2ncnc(N)c2nc1-c1ccc(N(CCCl)CCCl)cc1"
Reply: F

Query: Answer briefly: the call reported for "COS(=O)(=O)c1ccccc1" in this assay.
Reply: F

Data provenance is PubChem BioAssay (NCI).
